Assign OD450 to each entry below.
# Tested System: T1, human MSLN-R3 protein (human, UniProt Q13421 487-598)
# T1 construct: also called hMSLN-R3
# T1 sequence (Q13421 495-606, form in doubt): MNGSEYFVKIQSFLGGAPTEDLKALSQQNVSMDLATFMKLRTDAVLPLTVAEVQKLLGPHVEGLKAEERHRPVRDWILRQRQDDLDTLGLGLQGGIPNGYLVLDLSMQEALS
# Assay Summary: ELISA on coated antigen, antibody 0.0001 nM
Give bare numbers, in OD450.

Below: 2 binders and their reported OD450.
F7.33.24-H9 (scFv, not shown: small tags and cut ends, also called S009-F7.33.24 humanized antibody VH2 + VL3) scFv: EVQLVQSGAEVKKPGASVKVSCKASGYTFTSYWMHWVRQAPGQGLEWMGNVNPSNGGSNYNEKFKNRVTITVDKSASTAYMELSSLRSEDTAVYYCAPHYIGSRPGFAYWGQGTLVTVSSGGGGSGGGGSGGGGSDIVMTQTPLSLSVTPGQPASISCKASQNVGTNIAWYQQKPGQSPQALIYSASYRYSGVPDRFSGSGSGTDFTLKISRVEAEDVGVYYCQQYNSYPLTFGGGTKVEIK | 0.04
F7.33.24 (scFv, not shown: small tags and cut ends, also called S009-F7.33.24 (parental variable regions, in the humanized-antibody ELISA)) scFv: QVQLQQPGTELVKPGASVKLSCKASGYTFTSYWMHWVKQRPGQGLEWIGNVNPSNGGSNYNEKFKNKATLTVDKSSSTADMQLNSLTSEDSAVYYCAPHYIGSRPGFAYWGQGTLVTVSGGGGGSGGGGSGGGGSDIVMTQSQKFMSTSVGDRVSVTCKASQNVGTNIAWYQQKPGQSPKALIYSASYRYSGVPDRFTGSGSGTDFTLTITNVQSEDLAEYFCQQYNSYPLTFGGGTKVEIK | 0.04

Please find the next binder below.
Enquiry: Look at this binder and give its reported OD450. F7.33.24-H3 (scFv, not shown: small tags and cut ends, also called S009-F7.33.24 humanized antibody VH1 + VL3) scFv: EVQLVQSGAEVKKPGASVKVSCKASGYTFTSYWMHWVRQAPGQRLEWMGNVNPSNGGSNYNEKFKNRVTITVDKSASTAYMELSSLRSEDTAVYYCAPHYIGSRPGFAYWGQGTLVTVSSGGGGSGGGGSGGGGSDIVMTQTPLSLSVTPGQPASISCKASQNVGTNIAWYQQKPGQSPQALIYSASYRYSGVPDRFSGSGSGTDFTLKISRVEAEDVGVYYCQQYNSYPLTFGGGTKVEIK
Return: 0.04
